Where these numbers come from: ChEMBL document CHEMBL1201862

# Tested on: MDA-N
# TEST_METHOD_NOTES: NCI tumour cell line growth inhibition, 48 h
Activity calls are given as the source filed them. Cut-off read from the data, not from the text of the source: active = GI50 up to about 1.1 µM and inactive = higher.
Consider the following compounds; for each one, report its GI50.

Please report GI50 for the following compound: C=CC1(c2ccc3ccccc3c2)OCC(CC)O1 (stereo not given) 24.8 µM (inactive)

Fill in GI50 for record COc1ccc(/C=N/c2ccc(-c3nc4ccccc4s3)cc2)cc1OC 30.9 µM (inactive)

Consider the compound CCOC1OC(CO[Si](C)(C)C(C)(C)C)C(O)CC1n1ccc(=O)[nH]c1=O (stereo not given) and give its recorded GI50. > 100 µM (inactive)

Answer with the recorded GI50 of COc1ccc(Nc2nc(NNC(=O)Cc3ccccc3)nc(NNC(=O)c3ccncc3)n2)cc1 only. > 10 µM (inactive)

Determine from records and report GI50 for CCCCn1c(C)c(C(=O)OCC)c2cc(OCc3ccc(C(=O)Nn4c(C)ccc4C)cc3)c(Br)cc21 > 100 µM (inactive)
